Consider the following IC50 data for Epidermal growth factor receptor (Homo sapiens), collected from several reports.
Respond numerically; units are nM and should not be typed.

Exercise: Please report the recorded IC50 for CN(C)C1CCN(c2ccc(Nc3nc(Nc4cccc5c4N(S(C)(=O)=O)CC5)c4cc[nH]c4n3)c3c2CCO3)CC1 .
Key: 107

Exercise: // next record COc1cc(N2CCC(N3CCN(C)CC3)CC2)c(C)cc1Nc1nc(N)c(Br)c(Nc2cccc3c2N(S(C)(=O)=O)CC3)n1
Key: 1.2

Exercise: // next record CCc1cc(Nc2ncc(Br)c(Nc3ccc(-c4ccc(C)cn4)cc3P(C)(C)=O)n2)c(OC)cc1N1CCC(N2CCN(C)CC2)CC1
Key: 29.4

Exercise: // next record Cc1nn([C@H]2C[C@@H](NCCN(C)C)C2)c2c1/C=C/c1n[nH]c3ccc(cc13)-c1cnn(C)c1OCCCO2
Key: 101

* * *

Consider the following IC50 data for Epidermal growth factor receptor (Homo sapiens, UniProt P00533), collected from several reports.

Exercise: Recorded IC50 for O=C(Nc1ccc(-c2cc(-c3ccccc3)n[nH]2)cc1)Nc1ccc(Cl)c(C(F)(F)F)c1 with Epidermal growth factor receptor (Homo sapiens, UniProt P00533), please?
Key: > 5000 nM

Exercise: // next record Cc1c(/C=C2\C(=O)Nc3ccc(Br)cc32)[nH]c2c1C(=O)N(CCN1CCCC1)CC2
Key: 760 nM

Exercise: // next record C[C@H]1CN(C)Cc2c(c(OC3CCN(S(C)(=O)=O)CC3)nn2CCO)/C=C/c2n[nH]c3ccc(cc23)-c2cnn(C)c2O1
Key: 176 nM

Exercise: // next record C#Cc1cccc(Nc2ncnc3nc(Nc4ccc(CN5CCCC5)cc4)sc23)c1
Key: 5.42 nM

Exercise: // next record Cc1ccnc(NC(=O)c2ccc(Oc3ccnc4[nH]nc(N[C@@H]5CCCN(C(=O)c6ccccc6)C5)c34)cc2)c1
Key: > 10000 nM

Exercise: // next record C[C@H]1CN(C)Cc2c(c(O)nn2C)/C=C/c2n[nH]c3ccc(cc23)-c2cnn(C)c2O1
Key: 372 nM

Exercise: // next record C=CC(=O)N(C)[C@@H]1C=C(C)c2c(-c3cnc4ccccc4c3)c3c(N)ncnc3n2C1
Key: 7.3 nM

Exercise: // next record CN(C(=O)/C=C/CN(C)C1CC1)c1cccc(-n2c(=O)n(-c3ccc(OCc4ccccc4)cc3)c3c(N)ncnc32)c1
Key: 1000 to 10000 nM

Exercise: // next record C=CC(=O)Nc1cccc(Nc2cc(Nc3ccccc3)ncn2)n1
Key: ≤ 10 nM

Exercise: // next record Cc1[nH]c(/C=C2\C(=O)Nc3cccc(-c4ccc(Br)cc4)c32)c(C)c1C(=O)NCCN(C(C)C)C(C)C
Key: 7010 nM

Exercise: // next record Cc1cc(S(=O)(=O)Nc2cccc(-c3nc(C(C)C)sc3-c3ccnc(Nc4ccc(N5CCOCC5)nc4)n3)c2)c(F)cc1Cl
Key: > 1000 nM

Exercise: // next record CCN1CCN(C2CCN(c3ccc(Nc4nc(Nc5ccc(F)c6c5N(S(C)(=O)=O)CC65CCC5)c5cc[nH]c5n4)cc3F)CC2)CC1
Key: 7290 nM

Exercise: // next record COc1ccccc1C(=O)NCc1ccc(-c2nn([C@H]3C=C[C@H](F)C3)c3ncnc(N)c23)cc1
Key: 1000 to 10000 nM

Exercise: // next record C=CC(=O)N1CCCc2ccc(-c3c(-c4ccc(OCCN(C)C)cc4)[nH]c4nccc(Cl)c34)cc21
Key: ≤ 100 nM

Exercise: // next record COc1cc(N2CCN(CCS(C)(=O)=O)CC2)c(C)cc1Nc1nccc(-c2scnc2-c2cccc(NS(=O)(=O)c3c(F)cccc3F)c2)n1
Key: < 100 nM

* * *

Consider the following pIC50 data for Epidermal growth factor receptor (Homo sapiens), collected from several reports.
pIC50: −log10 of the molar value.

Exercise: Please report the recorded pIC50 for COc1ccc2[nH]c(/C(=C3\C(=O)Nc4ccc(NC5CC(C)(C)NC(C)(C)C5)cc43)c3ccccc3)nc2c1 .
Key: 5.30 to 6.30

Exercise: // next record CN(C/C=C/C(=O)N[C@H]1CC[C@H](n2nc(-c3ccc(C(=O)Nc4cc(C(F)(F)F)ccn4)cc3)c3c(N)ncnc32)CC1)C1CC1
Key: 6.00 to 7.00

Exercise: // next record CN1CCN(C2CCN(c3ccc(Nc4nc(NC5CCOCC5)c(-c5cccc6[nH]ccc56)nc4C(N)=O)cc3)CC2)CC1
Key: 8.55

Exercise: // next record CNC(=O)/C(F)=C/c1cccc(Nc2n[nH]c3nccc(Oc4ccc(Oc5ccccc5)cc4)c23)c1
Key: 6.00 to 7.00

Exercise: // next record O=C(Nc1ccccn1)c1ccc(Oc2ccnc3[nH]nc(N[C@@H]4CCCN(C(=O)C5CC5)C4)c23)cc1
Key: 5.00 to 6.00

Exercise: // next record Cc1nn([C@H]2CCOC[C@@H]2O)c2c1/C=C/c1n[nH]c3ccc(cc13)-c1cnn(C)c1OCCCO2 (racemic)
Key: < 6.00

Exercise: // next record Cc1nn([C@H]2CNC[C@@H]2O)c2c1/C=C/c1n[nH]c3ccc(cc13)-c1cnn(C)c1OCCCO2 (racemic)
Key: 7.07

Exercise: // next record Cc1cc(N2CCOCC2)ncc1Nc1nccc(-c2sc(N3CCCC3)nc2-c2cccc(NS(=O)(=O)c3c(F)cccc3F)c2)n1
Key: < 6.00

Exercise: // next record CC(C)(O)Cn1/c(=N/C(=O)c2ccnc(N3CCN(c4cccc(O)c4C=O)CC3)c2)[nH]c2ccccc21
Key: < 6.00

Exercise: // next record N#Cc1ccc(Nc2nc3ncnc(Nc4ccc(F)c(Cl)c4)c3s2)cc1
Key: 7.81

Exercise: // next record COCCN1CCC(Nc2ccc3c(c2)/C(=C(\c2ccc(C(F)(F)F)nc2)c2ncc[nH]2)C(=O)N3)CC1
Key: < 5.30

Exercise: // next record CC(=O)N1CCN(c2ccc(Nc3nccc(-c4sc(C(C)C)nc4-c4cccc(NS(=O)(=O)c5cn(C)cn5)c4)n3)cn2)CC1
Key: > 7.00

Exercise: // next record COc1ccccc1C(=O)NCc1ccc(-c2nn(C3CCC(OC)CC3)c3ncnc(N)c23)cc1 (centres unmarked)
Key: 6.00 to 7.00

Exercise: // next record CC(C)c1ccc(N2CC(CS(C)(=O)=O)C2)c2cnc(Nc3ccnc(N(C)Cc4cccc(O)c4C=O)n3)cc12
Key: < 6.00

* * *

pIC50: −log10 of the molar value.
Consider the following pIC50 data for Epidermal growth factor receptor (Homo sapiens, UniProt P00533), collected from several reports.

Exercise: Please report the recorded pIC50 for CNC1CCC(n2nc(-c3ccc(CNC(=O)c4ccccc4OC)cc3)c3c(N)ncnc32)CC1 (stereo not shown) .
Key: 6.00 to 7.00

Exercise: // next record CN1CCN(Cc2ccc3[nH]/c(=N\C(=O)c4ccnc(Oc5cccc(O)c5C=O)c4F)n(CC(C)(C)O)c3c2)CC1
Key: 7.17

Exercise: // next record O=C1C(c2cc(C(F)(F)F)cc(C(F)(F)F)c2)Cc2cnc(Nc3ccccc3)nc2N1c1ccccc1 (stereo not shown)
Key: < 5.00

Exercise: // next record COc1ccccc1C(=O)NCc1ccc(-c2nn([C@H]3C=C[C@@H](O)C3)c3ncnc(N)c23)cc1
Key: 6.00 to 7.00

Exercise: // next record COc1cc(N2CCN(CCS(C)(=O)=O)CC2)c(C)cc1Nc1nccc(-c2sc(C(C)C)nc2-c2cccc(NS(=O)(=O)c3c(F)cccc3F)c2)n1
Key: > 7.00

Exercise: // next record CN(C)C/C=C/C(=O)Nc1ccc(F)c(Nc2ncc(Br)c(Nc3ccc4ccccc4c3)n2)c1
Key: 5.38

Exercise: // next record COc1cccc(-c2nn([C@@H]3CCN(C(=O)/C=C/CN(C)C4CCC4)C3)c3ncnc(N)c23)c1
Key: < 6.00

* * *

Consider the following IC50 data for Epidermal growth factor receptor (Homo sapiens, UniProt P00533), collected from several reports.

Exercise: Recorded IC50 for COc1cc(C)cc(-c2nc(CNS(C)(=O)=O)sc2-c2ccnc(Nc3ccc(N4CCN(C(C)=O)CC4)nc3)n2)c1 with Epidermal growth factor receptor (Homo sapiens, UniProt P00533), please?
Key: > 1000 nM

Exercise: // next record CCN1Cc2c(c(C)nn2CCO)/C=C/c2n[nH]c3ccc(cc23)-c2cnn(C)c2O[C@@H](C)C1
Key: 0.54 nM

Exercise: // next record Cc1ccc(Nc2ncnc3cc(OC(C)C)c4c(c23)OCCO4)cc1[N+](=O)[O-]
Key: < 200 nM

Exercise: // next record N#C/C(=C\C1CCC1)C(=O)N1CC[C@@H](Nc2n[nH]c3nccc(Oc4ccc(Oc5ccccc5)cc4)c23)C1
Key: 100 to 1000 nM

Exercise: // next record CC(=O)N1CC[C@H](Nc2n[nH]c3nccc(Oc4cccc(C(=O)Nc5ccc(C(C)C)c(C)c5)c4)c23)C1
Key: 1000 to 10000 nM

Exercise: // next record CCCS(=O)(=O)N1CCc2cccc(Nc3nc(Nc4ccc(N5CCC(N6CCN(C)CC6)CC5)cc4OC)ncc3Cl)c21
Key: 8.1 nM

Exercise: // next record COc1cc(N2CCC(N3CCN(C)CC3)CC2)ccc1Nc1ncc(Cl)c(Nc2ccccc2-c2cccc(C=O)c2O)n1
Key: > 1000 nM

Exercise: // next record C=CC(=O)Nc1cc(-c2c(-c3ccc(N4CCN(C)CC4)cc3)[nH]c3nccc(Cl)c23)ccc1C
Key: ≤ 100 nM

Exercise: // next record COc1cc(C2CCN(C)CC2)c(C)cc1Nc1nc(Nc2cccc3c2N(S(C)(=O)=O)CC3)c2cc[nH]c2n1
Key: 427 nM

Exercise: // next record COCCN1CCC(Nc2ccc3c(c2)/C(=C(\c2ccc(C)c(F)c2)c2nc(C)c[nH]2)C(=O)N3)CC1
Key: < 50 nM

Exercise: // next record N#C/C(=C\c1ncc[nH]1)C(=O)N1CC[C@@H](Nc2n[nH]c3nccc(Oc4ccc(Oc5ccccc5)cc4)c23)C1
Key: < 100 nM

Exercise: // next record C=CC(=O)N1CCCC(n2cnc3cnc(Nc4ccc(N5CCN(C)CC5)c(F)c4)nc32)C1 (stereo not drawn)
Key: > 100 nM

Exercise: // next record Fc1ccc(Nc2ncnc3cc(OCC4CCCO4)c4c(c23)OCCO4)cc1Cl (stereo not drawn)
Key: < 50 nM

Exercise: // next record Cc1ccc(Oc2ccc(Nc3ncnc4sc5c(c34)CCN(C(=O)/C=C/CN[C@H]3CCC[C@H](O)C3)C5)cc2C)cn1
Key: 1000 to 10000 nM

Exercise: // next record Cc1[nH]c(/C=C2\C(=O)Nc3cccc(-c4ccc(Cl)cc4)c32)c(C)c1C(=O)NCCN1CCCC1
Key: 15900 nM
